- testSystem: MaxL homodimer (Homo sapiens, UniProt P61244 1-160)
- Sequence (P61244 whole entry): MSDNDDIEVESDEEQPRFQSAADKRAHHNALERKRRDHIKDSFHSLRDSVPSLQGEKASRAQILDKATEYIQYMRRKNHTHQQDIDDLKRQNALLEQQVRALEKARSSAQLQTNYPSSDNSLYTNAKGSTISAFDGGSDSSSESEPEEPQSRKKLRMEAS
- testName: universal protein-binding microarray (PBM); PBS-based mixture, 10 nM His-tagged protein dimer, 2% milk, 200 ng/uL BSA, 50 ng/uL salmon testes DNA, 0.02% TX-100; detection with Alexa 488 anti-His antibody;; high values mean tight binding;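 note: fluorescence intensity normalized to that of the highest-ranked 8-mer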
- conditionParameters: protein: recombinant; tags: C-terminal His-tag (pET21a); chain copies: 2; dsDNA, one strand shown
The full ranking holds about 33,000 sequences; the median of “normalized occupancy” is about 0.075, and the highest 2% start at about 0.095. Shown is part of a subset that was picked to be rich in the highest values.
valueType: binding signal (normalized occupancy)
One number for each entry, in normalized occupancy.

AGATGCAT 0.0784
AAATGCAT 0.079
AACGCGTT 0.0813
CCGTGCAA 0.078

Batch of 8 sequences: report binding signal for each.
1. GATATGCA
2. CTGTGCAC
3. AATATGCG
4. AGATGCAC
5. ACATGCAT
6. AAATATAC
7. AACGCTGA
8. ATAAGAGG

0.0792
0.0869
0.0761
0.0867
0.105
0.0881
0.0816
0.073

For each entry beneath this line, provide reported binding signal.
1. CCATGCAC
2. TAGAACAA
3. AGGTGCAC

[0.0969, 0.0771, 0.0767]

List binding signal for every entry below, keeping the order given.
1. ATGTTTGG
2. AATATGTA
3. CCTTCCCA

1: 0.0806; 2: 0.0801; 3: 0.0748

Could you report binding signal for every entry in the following list?
1. ACGTGCAC
2. AACGCTGG
3. TACGCTGA
4. GACGCGTC

1: 0.113; 2: 0.0764; 3: 0.0736; 4: 0.0757

----------
- testSystem: MaxL homodimer (Homo sapiens, UniProt P61244 1-160)
- testName: universal protein-binding microarray (PBM); PBS-based mixture, 10 nM His-tagged protein dimer, 2% milk, 200 ng/uL BSA, 50 ng/uL salmon testes DNA, 0.02% TX-100; detection with Alexa 488 anti-His antibody;; high values mean tight binding;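 note: fluorescence intensity normalized to that of the highest-ranked 8-mer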
- conditionParameters: protein: recombinant; tags: C-terminal His-tag (pET21a); chain copies: 2; dsDNA, one strand shown
Whole data set: some 33,000 sequences, median “normalized occupancy” near 0.075, cut for the highest 2% near 0.095. This is one part of a sample in which the highest values are shown more often than they occur.
valueType: binding signal (normalized occupancy)
One number for each entry, in normalized occupancy.

Use these answered entries as a reference point.
AGCATGGA 0.1
CGACCCTC 0.0724
TGAGTTAA 0.078

Provide the reported binding signal of each entry below, same order.
1. CCGCGTAA
2. ACTCGTCA
3. GCATGTCA
4. ATGACATA
5. CCGTGGAA
6. ATCGTTCG
7. GGCATTAC
8. AACCACCA

1: 0.0729; 2: 0.0793; 3: 0.0972; 4: 0.0825; 5: 0.0755; 6: 0.0755; 7: 0.0758; 8: 0.0807

Could you tell me binding signal for each of these sequences? They are listed below.
1. AGGAATTG
2. AGGTGGAG
3. AAGTGTCT
4. GCGTGGAA
5. ATGGGTAG
6. TCGTGGAA
7. AACTGTAC
8. AAGCGCGT

0.0797
0.0827
0.073
0.106
0.0856
0.0835
0.0732
0.0758

# batch size: 6; output binding signal per entry
1. GGCATGCA
2. GGCATGCC
3. CGCATGGC
4. ACTCGTGG
5. ATCATGGG
6. ACCACATG

[0.109, 0.0932, 0.127, 0.0955, 0.0858, 0.192]

Report binding signal for every entry below.
1. AGCATGGG
2. AAGCGTAT
3. AAGCGTGT
4. GACCACGA
5. AACCACGA
6. CGAATGCA
7. GATGCTGA

0.106
0.0722
0.0967
0.0865
0.0902
0.0799
0.0746
